Record form. Attribute: KINOMEscan: ADCK4. Fill in for each entry.
experimental-target: panel of 442 kinases (Homo sapiens)
Construct: purchased KINOMEscan
Format: binding
particulars: Compound Concentration 10 µM

Given the entry COc1cc(C(=O)N2CCC(N3CCN(C)CC3)CC2)ccc1Nc1ncc2c(n1)N(C1CCCC1)c1ccccc1C(=O)N2C [Compound 25] , report its measured KINOMEscan: ADCK4.
92

What would you report for CCOc1cc(C(=O)N2CCC(N3CCN(C)CC3)CC2)ccc1Nc1ncc2c(n1)N(C1CCCC1)c1ccccc1C(=O)N2C [Compound 26] ?
100

Repeat for the following compound: COc1cc(C(=O)N2CCC(N3CCN(C)CC3)CC2)ccc1Nc1ncc2c(n1)N(C)c1ccccc1C(=O)N2C [15 (LRRK2-IN-1)]
94

What do you have for COc1cc(C(=O)N2CCC(N3CCN(C)CC3)CC2)ccc1Nc1ncc2c(n1)N1CCc3cccc(c31)C(=O)N2C [Compound 24] ?
81

###

Would you kindly list KINOMEscan: MARK4 for each of these molecules?
experimental-target: panel of 442 kinases (Homo sapiens)
Construct: purchased KINOMEscan
Type: binding
particulars: Compound Concentration 10 µM

Dear colleague, I am looking for the recorded KINOMEscan: MARK4 of the following molecule: COc1cc(C(=O)N2CCC(N3CCN(C)CC3)CC2)ccc1Nc1ncc2c(n1)N(C1CCCC1)c1ccccc1C(=O)N2C [Compound 25]
100

Repeat with COc1cc(C(=O)N2CCC(N3CCN(C)CC3)CC2)ccc1Nc1ncc2c(n1)N1CCc3cccc(c31)C(=O)N2C [Compound 24]
87

Repeat with CCOc1cc(C(=O)N2CCC(N3CCN(C)CC3)CC2)ccc1Nc1ncc2c(n1)N(C1CCCC1)c1ccccc1C(=O)N2C [Compound 26]
100

Okay, and COc1cc(C(=O)N2CCC(N3CCN(C)CC3)CC2)ccc1Nc1ncc2c(n1)N(C)c1ccccc1C(=O)N2C [15 (LRRK2-IN-1)] ?
78

###

experimental-target: panel of 442 kinases (Homo sapiens)
Construct: purchased KINOMEscan
Format: binding
particulars: Compound Concentration 10 µM
observation-type: KINOMEscan: NLK
// no unit, no text: just the number

Sample COc1cc(C(=O)N2CCC(N3CCN(C)CC3)CC2)ccc1Nc1ncc2c(n1)N(C)c1ccccc1C(=O)N2C [15 (LRRK2-IN-1)] — what was its KINOMEscan: NLK?
50

Now try COc1cc(C(=O)N2CCC(N3CCN(C)CC3)CC2)ccc1Nc1ncc2c(n1)N(C1CCCC1)c1ccccc1C(=O)N2C [Compound 25] .
63

Request: COc1cc(C(=O)N2CCC(N3CCN(C)CC3)CC2)ccc1Nc1ncc2c(n1)N1CCc3cccc(c31)C(=O)N2C [Compound 24]
68

Now try CCOc1cc(C(=O)N2CCC(N3CCN(C)CC3)CC2)ccc1Nc1ncc2c(n1)N(C1CCCC1)c1ccccc1C(=O)N2C [Compound 26] .
78

###

experimental-target: panel of 442 kinases (Homo sapiens, UniProt P24723)
Construct: purchased KINOMEscan
Sequence (P24723 whole entry): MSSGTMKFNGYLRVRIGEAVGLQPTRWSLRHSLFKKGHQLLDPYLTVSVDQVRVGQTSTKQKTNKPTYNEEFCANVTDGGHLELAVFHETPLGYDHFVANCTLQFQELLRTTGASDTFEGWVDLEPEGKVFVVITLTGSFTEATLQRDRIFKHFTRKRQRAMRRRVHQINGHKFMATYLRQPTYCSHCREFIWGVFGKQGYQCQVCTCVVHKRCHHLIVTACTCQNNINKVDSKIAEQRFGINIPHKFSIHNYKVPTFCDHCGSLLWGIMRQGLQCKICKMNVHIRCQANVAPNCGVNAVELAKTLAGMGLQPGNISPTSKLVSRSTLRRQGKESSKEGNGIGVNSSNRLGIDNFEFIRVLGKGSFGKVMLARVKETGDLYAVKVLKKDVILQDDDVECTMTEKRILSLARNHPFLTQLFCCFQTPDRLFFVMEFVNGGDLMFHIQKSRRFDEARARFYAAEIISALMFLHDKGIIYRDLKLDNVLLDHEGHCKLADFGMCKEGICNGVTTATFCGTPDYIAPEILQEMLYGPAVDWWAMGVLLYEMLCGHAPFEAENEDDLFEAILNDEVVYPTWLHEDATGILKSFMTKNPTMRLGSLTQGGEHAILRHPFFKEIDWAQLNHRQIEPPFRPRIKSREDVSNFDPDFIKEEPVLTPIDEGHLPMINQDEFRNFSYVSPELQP
Type: binding
particulars: Compound Concentration 10 µM
Provide the recorded KINOMEscan: PRKCH for the entries that follow.

Give the measured KINOMEscan: PRKCH of CCOc1cc(C(=O)N2CCC(N3CCN(C)CC3)CC2)ccc1Nc1ncc2c(n1)N(C1CCCC1)c1ccccc1C(=O)N2C [Compound 26] .
100

Next compound up: COc1cc(C(=O)N2CCC(N3CCN(C)CC3)CC2)ccc1Nc1ncc2c(n1)N(C1CCCC1)c1ccccc1C(=O)N2C [Compound 25]
100

Input COc1cc(C(=O)N2CCC(N3CCN(C)CC3)CC2)ccc1Nc1ncc2c(n1)N(C)c1ccccc1C(=O)N2C [15 (LRRK2-IN-1)]
100

Same lookup for COc1cc(C(=O)N2CCC(N3CCN(C)CC3)CC2)ccc1Nc1ncc2c(n1)N1CCc3cccc(c31)C(=O)N2C [Compound 24] , please.
84

###

So I've got a bunch of compounds here, and I need their KINOMEscan: ACVR2A values.
experimental-target: panel of 442 kinases (Homo sapiens)
Construct: purchased KINOMEscan
Format: binding
particulars: Compound Concentration 10 µM

Fill blank: measured KINOMEscan: ACVR2A of the compound CCOc1cc(C(=O)N2CCC(N3CCN(C)CC3)CC2)ccc1Nc1ncc2c(n1)N(C1CCCC1)c1ccccc1C(=O)N2C is ____.
95

Consider next the compound COc1cc(C(=O)N2CCC(N3CCN(C)CC3)CC2)ccc1Nc1ncc2c(n1)N1CCc3cccc(c31)C(=O)N2C in the same way.
71

And then COc1cc(C(=O)N2CCC(N3CCN(C)CC3)CC2)ccc1Nc1ncc2c(n1)N(C)c1ccccc1C(=O)N2C , what is it?
100

Item: COc1cc(C(=O)N2CCC(N3CCN(C)CC3)CC2)ccc1Nc1ncc2c(n1)N(C1CCCC1)c1ccccc1C(=O)N2C
93

###

experimental-target: panel of 442 kinases (Homo sapiens, UniProt P06213)
Construct: purchased KINOMEscan
Sequence (P06213 28-1382): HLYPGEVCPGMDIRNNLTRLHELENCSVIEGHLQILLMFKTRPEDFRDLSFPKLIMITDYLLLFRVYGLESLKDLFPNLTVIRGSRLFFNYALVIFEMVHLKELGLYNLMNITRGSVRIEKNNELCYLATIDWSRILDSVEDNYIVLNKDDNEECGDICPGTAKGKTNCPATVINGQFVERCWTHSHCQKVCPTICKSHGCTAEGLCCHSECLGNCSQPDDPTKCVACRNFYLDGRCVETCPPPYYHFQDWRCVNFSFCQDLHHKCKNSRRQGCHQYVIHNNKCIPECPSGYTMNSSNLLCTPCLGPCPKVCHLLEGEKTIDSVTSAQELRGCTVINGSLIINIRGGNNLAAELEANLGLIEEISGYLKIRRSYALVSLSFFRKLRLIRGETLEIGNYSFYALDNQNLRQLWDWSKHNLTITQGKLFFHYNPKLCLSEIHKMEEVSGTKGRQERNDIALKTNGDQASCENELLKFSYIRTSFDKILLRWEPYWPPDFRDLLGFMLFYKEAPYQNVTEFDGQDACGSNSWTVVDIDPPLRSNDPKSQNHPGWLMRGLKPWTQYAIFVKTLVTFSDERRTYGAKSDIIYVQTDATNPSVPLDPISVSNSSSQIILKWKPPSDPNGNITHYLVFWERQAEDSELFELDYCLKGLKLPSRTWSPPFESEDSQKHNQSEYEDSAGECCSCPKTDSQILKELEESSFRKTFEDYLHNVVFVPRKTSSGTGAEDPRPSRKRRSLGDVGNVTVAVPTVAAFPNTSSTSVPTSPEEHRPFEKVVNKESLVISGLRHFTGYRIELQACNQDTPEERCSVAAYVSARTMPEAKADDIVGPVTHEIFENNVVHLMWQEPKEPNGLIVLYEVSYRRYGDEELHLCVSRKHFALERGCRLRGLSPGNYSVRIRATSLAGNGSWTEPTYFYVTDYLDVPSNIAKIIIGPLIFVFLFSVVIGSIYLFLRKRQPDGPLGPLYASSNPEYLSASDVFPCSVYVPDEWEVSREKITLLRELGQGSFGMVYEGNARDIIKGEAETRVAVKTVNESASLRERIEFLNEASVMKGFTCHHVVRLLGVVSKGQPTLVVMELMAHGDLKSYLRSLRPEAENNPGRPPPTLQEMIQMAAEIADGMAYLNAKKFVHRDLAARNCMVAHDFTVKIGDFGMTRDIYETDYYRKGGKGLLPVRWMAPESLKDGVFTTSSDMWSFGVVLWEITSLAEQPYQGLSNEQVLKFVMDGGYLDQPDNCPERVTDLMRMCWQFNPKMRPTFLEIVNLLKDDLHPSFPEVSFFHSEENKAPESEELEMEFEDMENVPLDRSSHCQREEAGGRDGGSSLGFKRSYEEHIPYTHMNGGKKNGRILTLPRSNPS
Assay type: binding
particulars: Compound Concentration 10 µM
For each of the compounds below, state its KINOMEscan: INSR.
Would you mind answering with just the numeric figure?

Any idea what its KINOMEscan: INSR is? The compound is COc1cc(C(=O)N2CCC(N3CCN(C)CC3)CC2)ccc1Nc1ncc2c(n1)N(C)c1ccccc1C(=O)N2C
84

Same question for COc1cc(C(=O)N2CCC(N3CCN(C)CC3)CC2)ccc1Nc1ncc2c(n1)N(C1CCCC1)c1ccccc1C(=O)N2C please.
88

Let us now turn to COc1cc(C(=O)N2CCC(N3CCN(C)CC3)CC2)ccc1Nc1ncc2c(n1)N1CCc3cccc(c31)C(=O)N2C
78

And what about the compound CCOc1cc(C(=O)N2CCC(N3CCN(C)CC3)CC2)ccc1Nc1ncc2c(n1)N(C1CCCC1)c1ccccc1C(=O)N2C ?
100

###

experimental-target: panel of 442 kinases (Homo sapiens, UniProt P00519, F317I)
Construct: purchased KINOMEscan
Sequence (P00519 whole entry F317I): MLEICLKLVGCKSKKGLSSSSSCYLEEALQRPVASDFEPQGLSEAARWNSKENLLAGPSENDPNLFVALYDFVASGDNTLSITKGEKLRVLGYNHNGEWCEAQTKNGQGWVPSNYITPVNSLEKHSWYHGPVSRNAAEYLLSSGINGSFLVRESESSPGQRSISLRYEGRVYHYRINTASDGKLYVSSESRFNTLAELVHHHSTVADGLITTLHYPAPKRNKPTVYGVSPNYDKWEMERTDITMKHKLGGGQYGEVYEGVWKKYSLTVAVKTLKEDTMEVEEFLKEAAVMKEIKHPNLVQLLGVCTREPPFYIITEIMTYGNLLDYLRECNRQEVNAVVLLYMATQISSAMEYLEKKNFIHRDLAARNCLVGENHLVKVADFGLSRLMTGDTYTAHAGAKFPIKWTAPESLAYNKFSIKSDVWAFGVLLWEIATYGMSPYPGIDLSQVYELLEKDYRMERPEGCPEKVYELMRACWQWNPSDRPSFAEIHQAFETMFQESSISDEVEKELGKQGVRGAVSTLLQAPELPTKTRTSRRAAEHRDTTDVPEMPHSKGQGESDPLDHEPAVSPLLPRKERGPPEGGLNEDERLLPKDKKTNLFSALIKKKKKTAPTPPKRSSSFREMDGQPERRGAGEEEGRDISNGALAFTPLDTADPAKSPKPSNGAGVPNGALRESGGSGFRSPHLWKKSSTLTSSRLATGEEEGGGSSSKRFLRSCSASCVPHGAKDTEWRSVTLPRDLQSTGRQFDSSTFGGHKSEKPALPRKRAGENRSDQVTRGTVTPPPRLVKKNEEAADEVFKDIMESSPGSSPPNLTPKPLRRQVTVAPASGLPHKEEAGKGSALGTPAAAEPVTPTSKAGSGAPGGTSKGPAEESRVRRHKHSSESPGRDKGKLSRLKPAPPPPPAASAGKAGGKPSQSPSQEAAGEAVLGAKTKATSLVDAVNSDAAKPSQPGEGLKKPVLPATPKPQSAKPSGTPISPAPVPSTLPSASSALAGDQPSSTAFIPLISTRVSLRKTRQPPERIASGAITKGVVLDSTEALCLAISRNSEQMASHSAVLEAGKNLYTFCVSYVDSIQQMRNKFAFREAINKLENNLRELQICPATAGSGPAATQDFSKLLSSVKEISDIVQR
Format: binding
particulars: Compound Concentration 10 µM
observation-type: KINOMEscan: ABL1(F317I)-nonphosphorylated
Respond numerically, and do not add a unit to the figure.

KINOMEscan: ABL1(F317I)-nonphosphorylated lookup needed for COc1cc(C(=O)N2CCC(N3CCN(C)CC3)CC2)ccc1Nc1ncc2c(n1)N(C1CCCC1)c1ccccc1C(=O)N2C [Compound 25] , thanks.
26

And COc1cc(C(=O)N2CCC(N3CCN(C)CC3)CC2)ccc1Nc1ncc2c(n1)N(C)c1ccccc1C(=O)N2C [15 (LRRK2-IN-1)] ?
15

Continue with CCOc1cc(C(=O)N2CCC(N3CCN(C)CC3)CC2)ccc1Nc1ncc2c(n1)N(C1CCCC1)c1ccccc1C(=O)N2C [Compound 26]
51

And then COc1cc(C(=O)N2CCC(N3CCN(C)CC3)CC2)ccc1Nc1ncc2c(n1)N1CCc3cccc(c31)C(=O)N2C [Compound 24] , what is it?
17

###

experimental-target: panel of 442 kinases (Homo sapiens, UniProt P43403)
Construct: purchased KINOMEscan
Sequence (P43403 whole entry): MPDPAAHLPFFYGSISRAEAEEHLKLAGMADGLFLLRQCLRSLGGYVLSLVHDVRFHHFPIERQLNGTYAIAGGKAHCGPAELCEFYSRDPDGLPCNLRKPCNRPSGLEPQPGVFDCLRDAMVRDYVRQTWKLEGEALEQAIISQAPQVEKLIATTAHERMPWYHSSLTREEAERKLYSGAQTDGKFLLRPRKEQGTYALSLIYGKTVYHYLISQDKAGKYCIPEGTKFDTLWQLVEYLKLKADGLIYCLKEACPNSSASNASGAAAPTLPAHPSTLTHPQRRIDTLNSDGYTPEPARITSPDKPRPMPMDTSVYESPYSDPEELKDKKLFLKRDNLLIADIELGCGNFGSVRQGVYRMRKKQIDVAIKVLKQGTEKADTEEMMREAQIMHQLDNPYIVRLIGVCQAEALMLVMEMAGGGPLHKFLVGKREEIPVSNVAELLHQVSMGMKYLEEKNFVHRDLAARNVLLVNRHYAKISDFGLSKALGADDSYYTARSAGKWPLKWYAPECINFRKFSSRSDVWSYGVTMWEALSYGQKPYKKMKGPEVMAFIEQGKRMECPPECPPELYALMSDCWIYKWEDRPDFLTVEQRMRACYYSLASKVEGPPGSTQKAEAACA
Type: binding
particulars: kinase ZAP70; compound concentration 10 µM
Consider the following compounds; for each one, report its % Ctrl, ZAP70.
Answer with a number only, understood to be in % Ctrl.

Find % Ctrl, ZAP70 (panel of 442 kinases (Homo sapiens, UniProt P43403)) for the entry COc1cc(C(=O)N2CCC(N3CCN(C)CC3)CC2)ccc1Nc1ncc2c(n1)N(C)c1ccccc1C(=O)N2C
79

Param item: CCOc1cc(C(=O)N2CCC(N3CCN(C)CC3)CC2)ccc1Nc1ncc2c(n1)N(C1CCCC1)c1ccccc1C(=O)N2C
90

Also, COc1cc(C(=O)N2CCC(N3CCN(C)CC3)CC2)ccc1Nc1ncc2c(n1)N(C1CCCC1)c1ccccc1C(=O)N2C please.
79

Another compound: COc1cc(C(=O)N2CCC(N3CCN(C)CC3)CC2)ccc1Nc1ncc2c(n1)N1CCc3cccc(c31)C(=O)N2C
100

###

experimental-target: panel of 442 kinases (Homo sapiens, UniProt P00533, T790M)
Construct: purchased KINOMEscan
Sequence (P00533 25-1210 T790M): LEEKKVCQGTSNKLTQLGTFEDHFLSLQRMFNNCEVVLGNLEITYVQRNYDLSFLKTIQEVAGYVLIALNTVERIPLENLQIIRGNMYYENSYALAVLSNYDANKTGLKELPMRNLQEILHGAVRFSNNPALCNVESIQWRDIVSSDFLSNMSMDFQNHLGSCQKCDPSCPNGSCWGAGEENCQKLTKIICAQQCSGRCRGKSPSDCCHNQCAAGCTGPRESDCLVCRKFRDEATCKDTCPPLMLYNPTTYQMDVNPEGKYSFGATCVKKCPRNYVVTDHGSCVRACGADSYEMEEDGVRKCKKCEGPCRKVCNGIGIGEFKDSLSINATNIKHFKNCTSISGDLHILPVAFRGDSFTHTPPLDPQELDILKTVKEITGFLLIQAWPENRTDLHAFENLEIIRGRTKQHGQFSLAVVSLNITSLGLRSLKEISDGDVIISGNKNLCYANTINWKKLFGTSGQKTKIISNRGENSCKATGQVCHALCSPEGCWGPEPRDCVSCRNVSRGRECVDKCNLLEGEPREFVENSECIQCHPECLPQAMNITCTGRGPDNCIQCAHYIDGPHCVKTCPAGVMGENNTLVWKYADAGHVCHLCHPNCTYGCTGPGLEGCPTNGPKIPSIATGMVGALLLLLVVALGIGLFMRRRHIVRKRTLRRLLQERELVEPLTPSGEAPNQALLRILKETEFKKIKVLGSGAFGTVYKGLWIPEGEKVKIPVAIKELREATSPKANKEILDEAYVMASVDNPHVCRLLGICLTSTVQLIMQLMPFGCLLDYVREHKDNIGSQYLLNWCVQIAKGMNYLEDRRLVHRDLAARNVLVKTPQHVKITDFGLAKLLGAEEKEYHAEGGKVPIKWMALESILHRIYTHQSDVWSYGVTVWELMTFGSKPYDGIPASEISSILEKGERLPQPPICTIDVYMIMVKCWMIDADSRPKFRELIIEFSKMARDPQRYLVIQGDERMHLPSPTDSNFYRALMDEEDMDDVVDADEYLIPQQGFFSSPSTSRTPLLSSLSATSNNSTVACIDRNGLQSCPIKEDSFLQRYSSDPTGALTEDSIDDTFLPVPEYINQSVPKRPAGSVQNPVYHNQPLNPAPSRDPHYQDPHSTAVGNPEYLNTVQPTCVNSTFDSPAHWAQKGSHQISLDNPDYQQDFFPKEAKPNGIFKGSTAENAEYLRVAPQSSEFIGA
Type: binding
particulars: Compound Concentration 10 µM
observation-type: KINOMEscan: EGFR(T790M)
When you answer, write just the number.

KINOMEscan: EGFR(T790M) for COc1cc(C(=O)N2CCC(N3CCN(C)CC3)CC2)ccc1Nc1ncc2c(n1)N(C)c1ccccc1C(=O)N2C ?
88

What would you report for COc1cc(C(=O)N2CCC(N3CCN(C)CC3)CC2)ccc1Nc1ncc2c(n1)N1CCc3cccc(c31)C(=O)N2C ?
76

Same question for COc1cc(C(=O)N2CCC(N3CCN(C)CC3)CC2)ccc1Nc1ncc2c(n1)N(C1CCCC1)c1ccccc1C(=O)N2C please.
89

Same lookup for CCOc1cc(C(=O)N2CCC(N3CCN(C)CC3)CC2)ccc1Nc1ncc2c(n1)N(C1CCCC1)c1ccccc1C(=O)N2C , please.
100

Value source: paper PMC3914206
